Test system: A549
Test: Cytotoxicity against human A549 cells assessed as cell viability at 1 uM after 3 days by colorimetric MTT assay
Assay type: functional
Details: A549, 72 h, read-out: Activity
Would you mind telling me the reported viability at 1 µM of each entry?
Note: state the figure and append the unit.

1. Cc1ccc(NC(=O)c2ccc(CN3CCN(C)CC3)cc2)cc1Nc1nccc(-c2cccnc2)n1
108%

Record viability at 1 µM per entry; entries follow.
1. Cc1ccccc1-n1cc(-c2ccccc2)c(-c2ccc3c(c2)NC(=O)CO3)n1
2. O=C1COc2ccc(-c3[nH]c(-c4ccc(F)cc4)nc3-c3ccccc3)cc2N1
3. O=C1COc2ccc(-c3[nH]c(-c4ccccc4)nc3-c3ccccc3)cc2N1

Ans.
1: 94.8%; 2: 97.1%; 3: 95.6%

Record viability at 1 µM per entry; entries follow.
1. COc1ccc(-c2nc(-c3ccccc3)c(-c3ccc4c(c3)NC(=O)CO4)[nH]2)cc1
2. COc1ccc(-n2cc(-c3ccccc3)c(-c3ccc4c(c3)NC(=O)CO4)n2)cc1
3. CNC(=O)c1cc(Oc2ccc(NC(=O)Nc3ccc(Cl)c(C(F)(F)F)c3)cc2)ccn1
4. CCN(CC)CCNC(=O)c1c(C)[nH]c(/C=C2\C(=O)Nc3ccc(F)cc32)c1C
5. O=C1COc2ccc(-c3nn(-c4cc(Cl)cc(Cl)c4)cc3-c3ccccc3)cc2N1

Ans.
["101%", "95.6%", "103%", "102%", "93.1%"]
